target-system: CDK4/CyclinD1 (Homo sapiens)
Sequence (P11802 whole entry, species assumed): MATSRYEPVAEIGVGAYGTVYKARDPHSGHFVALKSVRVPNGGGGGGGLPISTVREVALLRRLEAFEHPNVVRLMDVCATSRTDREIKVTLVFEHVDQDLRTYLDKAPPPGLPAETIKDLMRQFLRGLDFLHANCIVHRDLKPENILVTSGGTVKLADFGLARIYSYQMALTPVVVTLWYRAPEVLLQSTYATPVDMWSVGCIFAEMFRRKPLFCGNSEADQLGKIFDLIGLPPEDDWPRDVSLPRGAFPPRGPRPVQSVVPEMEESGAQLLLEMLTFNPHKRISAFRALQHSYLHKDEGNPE
Sequence (P24385 whole entry partner, species assumed): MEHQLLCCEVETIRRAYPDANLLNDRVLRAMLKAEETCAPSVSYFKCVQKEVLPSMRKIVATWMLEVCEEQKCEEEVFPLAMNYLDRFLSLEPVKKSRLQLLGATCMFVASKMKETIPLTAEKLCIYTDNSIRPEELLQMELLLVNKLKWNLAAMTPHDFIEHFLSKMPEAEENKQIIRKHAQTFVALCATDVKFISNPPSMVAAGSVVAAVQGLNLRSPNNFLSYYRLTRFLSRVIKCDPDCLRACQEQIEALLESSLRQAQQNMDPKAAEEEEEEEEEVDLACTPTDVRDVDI
experiment-summary: ADP Glo kinase assay, CDK4/CyclinD1
details: Km ATP, read-out: Enzymatic inhibition, Ki, CDK4 D1
pKi: −log10 of the molar value.
readout-kind: pKi

Problem: Check the records and state pKi for "Cc1ccc2ncc(-c3ccnc(Nc4ccc(N5CCN(C)CC5)nc4)n3)n2c1"
Solution: 7.47

Problem: Check the records and state pKi for "Cc1cnc(Nc2ccc(N3CCN(C)CC3)nc2)nc1-c1cnc2ccccn12"
Solution: 7.34

Problem: Check the records and state pKi for "CS(=O)(=O)N1CCN(c2ccc(Nc3nccc(-c4cnc5ccc(Br)cn45)n3)cn2)CC1"
Solution: 6.14

Problem: Check the records and state pKi for "CN1CCN(c2ccc(Nc3nccc(-c4cnc5ccc(Cl)cn45)n3)cn2)CC1"
Solution: 7.03

1 = Fc1cnc(Nc2ccc(N3CCOCC3)nc2)nc1-c1cnc2ccccn12
2 = CC(C)N1CCN(c2ccc(Nc3nccc(-c4cnc5ccc(Cl)cn45)n3)cn2)CC1
Problem: Given the entries 1 and 2 , determine which has the lower reported pKi. // caller expects the label of the chosen entry
Solution: 1

I = CC(C)N1CCN(c2ccc(Nc3nccc(-c4cnc5ccc(Br)cn45)n3)cn2)CC1
II = CN1CCN(c2ccc(Nc3nccc(-c4cnc5ccc(C(F)(F)F)cn45)n3)cn2)CC1
III = CN1CCN(c2ccc(Nc3nccc(-c4cnc5ccc(-c6ccccc6)cn45)n3)cn2)CC1
Problem: Rank entries according to their pKi, from the largest number down. Reply with the labels, ordered as the question asks.
Solution: I, III, II

A = Fc1cnc(Nc2cccnc2)nc1-c1cnc2ccccn12
B = Cc1cnc(Nc2ccc(N3CCNCC3)nc2)nc1-c1cnc2ccccn12
Problem: Thinking about recorded pKi values, which is higher, A or B ? // caller expects the label of the chosen entry
Solution: A
(A: 7.13, B: 6.39)

###

target-system: CDK2/CyclinA2 (Homo sapiens, UniProt P24941)
experiment-summary: ADP Glo kinase assay, CDK2/CyclinA2
Assay type: biochemical
details: compound at 1 μM, read-out: Residual enzymatic activity (%) at 1 μM, CDK2 A
Method: Test compounds are used in 1:3 serial dilutions for 10 concentrations (from 10-0.0005 μM) in 0.5% DMSO. […] The kinase reactions are run for optimised time period at room temperature and then the reaction is stopped by adding 5 μL of ADP Glo reagent.
readout-kind: remaining activity at 1 µM (%)

// known answers, use as guide
Problem: Check the records and state remaining activity at 1 µM for "COC(=O)N1CCC(c2ccc(Nc3ncc(F)c(-c4cnc5ccc(-c6ccccc6)cn45)n3)cn2)CC1"
Solution: 25

Problem: Check the records and state remaining activity at 1 µM for "CS(=O)(=O)N1CCN(c2ccc(Nc3nccc(-c4cnc5ccc(-c6cccnc6)cn45)n3)cn2)CC1"
Solution: 33

Problem: Check the records and state remaining activity at 1 µM for "CS(=O)(=O)N1CCN(c2ccc(Nc3nccc(-c4cnc5ccc(-c6ccco6)cn45)n3)cn2)CC1"
Solution: 85

Problem: Check the records and state remaining activity at 1 µM for "CS(=O)(=O)N1CCN(c2ccc(Nc3nccc(-c4cnc5ccc(-c6cc7ccccc7o6)cn45)n3)cn2)CC1"
Solution: 97

1 = CCCNc1ccc(Nc2nccc(-c3cnc4ccc(-c5ccccc5)cn34)n2)cn1
2 = CN1CCN(Cc2ccc(Nc3nccc(-c4cnc5ccc(-c6ccccc6)cn45)n3)cn2)CC1
3 = CN1CCN(c2ccc(Nc3nccc(-c4cnc5ccc(-c6cnc(N)nc6)cn45)n3)cn2)CC1
Problem: Please put the entries in order of rising remaining activity at 1 µM. Reply with the labels, ordered as the question asks.
Solution: 3, 2, 1
